Recorded below: pKi, system D(3) dopamine receptor (Homo sapiens, UniProt P35462).
Friendly reminder that pKi comes from taking -log10 of the concentration in mol/L.

Guide cases for pKi, answers given:
>>> df
                               smiles_entry  measure_name  readout_number
0  Ic1ccc(Nc2nc3ccccc3c3[nH]c(C4CCCCC4)nc23)cc1           pKi            6.07
1  Clc1ccc(Nc2nc3ccccc3c3[nH]c(C4CCCCCCCCCCC4)nc23)cc1Cl           pKi            5.12

Measured pKi for this entry `Clc1ccc(Nc2nc3ccccc3c3[nH]c(C4CCCCCCCCCC4)nc23)cc1Cl` on D(3) dopamine receptor (Homo sapiens, UniProt P35462): 5.28

---

# Target under test: Mu-type opioid receptor (Homo sapiens)
# Sequence (P35372 whole entry): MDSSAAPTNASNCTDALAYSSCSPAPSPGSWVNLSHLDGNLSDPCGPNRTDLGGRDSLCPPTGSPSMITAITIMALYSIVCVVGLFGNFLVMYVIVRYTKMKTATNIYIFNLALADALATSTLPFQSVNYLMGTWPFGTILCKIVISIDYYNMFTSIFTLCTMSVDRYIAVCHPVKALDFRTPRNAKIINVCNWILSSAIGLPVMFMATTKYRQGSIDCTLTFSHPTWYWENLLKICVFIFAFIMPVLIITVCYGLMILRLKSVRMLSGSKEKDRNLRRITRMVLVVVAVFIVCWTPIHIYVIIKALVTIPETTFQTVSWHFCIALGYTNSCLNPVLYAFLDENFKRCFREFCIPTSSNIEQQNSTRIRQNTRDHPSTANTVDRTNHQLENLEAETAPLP
Measure name: pKi
pKi is a log-scale quantity: -log10 of the concentration expressed in molar.

// compound `Clc1ccc(Nc2nc3ccccc3c3[nH]c([C@@H]4C[C@@H]5CCC[C@@H](C5)C4)nc23)cc1Cl` , assay Mu-type opioid receptor (Homo sapiens), pKi value: 5.14

---

# Assay text: Clearance in Wistar rat plasma at 3 mg/kg, po and measured upto 24 hrs
# Type: ADME, organism-based
Measure name: CL/F (mL/min/kg)
Dear colleague, please return just the value in mL/min/kg, with no unit written.

Lookup result for `Clc1ccc(Nc2nc3ccccc3c3[nH]c(C4CCC=CCC4)nc23)cc1Cl` ; measured CL/F: 26.3

---

# Target under test: Voltage-gated inwardly rectifying potassium channel KCNH2 (Homo sapiens)
# Sequence (Q12809 whole entry): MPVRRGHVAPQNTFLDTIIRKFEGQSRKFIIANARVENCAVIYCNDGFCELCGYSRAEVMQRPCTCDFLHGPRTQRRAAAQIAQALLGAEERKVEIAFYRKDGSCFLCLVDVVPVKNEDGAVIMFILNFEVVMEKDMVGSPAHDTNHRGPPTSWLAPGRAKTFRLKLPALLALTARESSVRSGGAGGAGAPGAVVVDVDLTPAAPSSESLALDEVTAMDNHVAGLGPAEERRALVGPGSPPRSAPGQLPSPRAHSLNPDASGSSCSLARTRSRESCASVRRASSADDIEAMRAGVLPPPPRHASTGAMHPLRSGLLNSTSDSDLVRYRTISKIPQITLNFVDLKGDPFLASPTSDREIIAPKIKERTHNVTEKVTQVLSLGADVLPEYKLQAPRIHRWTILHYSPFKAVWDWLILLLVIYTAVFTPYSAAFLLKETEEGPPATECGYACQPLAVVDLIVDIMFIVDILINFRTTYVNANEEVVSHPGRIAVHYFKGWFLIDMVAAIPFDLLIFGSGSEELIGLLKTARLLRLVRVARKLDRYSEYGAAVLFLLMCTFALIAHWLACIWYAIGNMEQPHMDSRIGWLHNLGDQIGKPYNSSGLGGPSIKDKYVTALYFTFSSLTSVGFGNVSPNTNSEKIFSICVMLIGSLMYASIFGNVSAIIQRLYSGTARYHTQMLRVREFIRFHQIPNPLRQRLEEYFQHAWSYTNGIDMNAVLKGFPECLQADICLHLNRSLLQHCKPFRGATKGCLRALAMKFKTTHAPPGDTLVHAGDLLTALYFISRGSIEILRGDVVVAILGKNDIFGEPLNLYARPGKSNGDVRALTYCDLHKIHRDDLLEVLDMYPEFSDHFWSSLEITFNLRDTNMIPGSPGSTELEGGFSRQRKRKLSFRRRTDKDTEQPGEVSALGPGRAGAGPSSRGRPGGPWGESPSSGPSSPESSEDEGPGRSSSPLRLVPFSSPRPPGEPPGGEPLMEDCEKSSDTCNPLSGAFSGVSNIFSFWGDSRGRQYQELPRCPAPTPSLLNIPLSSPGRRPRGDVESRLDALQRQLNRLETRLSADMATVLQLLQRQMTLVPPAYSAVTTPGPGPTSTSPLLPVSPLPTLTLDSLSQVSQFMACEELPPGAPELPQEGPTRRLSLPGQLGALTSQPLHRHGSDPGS
# Assay text: Inhibition of human ERG stably transfected in HEK293 cells incubated for 2 hrs by TAMRA fluorescence polarization assay
Measure name: IC50 (µM)
The answer is to be given in µM; state only the numeric part.

Field IC50 (entry `Clc1ccc(Nc2nc3ccccc3c3[nH]c(C4CCC=CCC4)nc23)cc1Cl` ) reads 6.06

---

# Target under test: Sodium-dependent dopamine transporter (Homo sapiens, UniProt Q01959)
# Sequence (Q01959 whole entry): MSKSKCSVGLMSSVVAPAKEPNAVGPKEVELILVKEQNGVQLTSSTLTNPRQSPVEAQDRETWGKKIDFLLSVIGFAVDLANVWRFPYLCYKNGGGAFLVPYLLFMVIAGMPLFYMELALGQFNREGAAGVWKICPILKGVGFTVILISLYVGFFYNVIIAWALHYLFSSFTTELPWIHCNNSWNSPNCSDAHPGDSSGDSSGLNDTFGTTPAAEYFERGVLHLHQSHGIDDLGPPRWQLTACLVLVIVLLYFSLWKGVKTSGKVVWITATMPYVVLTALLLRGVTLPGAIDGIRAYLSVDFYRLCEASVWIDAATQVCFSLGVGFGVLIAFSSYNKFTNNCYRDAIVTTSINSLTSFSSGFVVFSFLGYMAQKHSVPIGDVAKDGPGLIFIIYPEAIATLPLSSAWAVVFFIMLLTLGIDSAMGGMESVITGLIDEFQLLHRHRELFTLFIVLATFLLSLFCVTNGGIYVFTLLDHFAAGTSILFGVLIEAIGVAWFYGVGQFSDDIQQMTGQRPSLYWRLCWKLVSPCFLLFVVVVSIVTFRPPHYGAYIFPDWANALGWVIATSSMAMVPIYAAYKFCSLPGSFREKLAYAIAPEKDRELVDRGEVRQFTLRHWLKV
Measure name: Ki (nM)
Report the figure in nM without appending any unit label.

Memo: `Clc1ccc(Nc2nc3ccccc3c3[nH]c([C@@H]4C[C@@H]5CCC[C@@H](C5)C4)nc23)cc1Cl` , reported Ki: 467

---

# Target under test: Cytochrome P450 1A2 (Homo sapiens) (UniProt P05177)
Listed compounds paired with reported pIC50
pIC50 is defined as minus the log10 of a concentration measured in mol/L.

                                   compound  measure_name  readout_number
0  Clc1ccc(COC(Cn2ccnc2)c2ccc(Cl)cc2Cl)c(Cl)c1 (configuration not stated)         pIC50            5.34

For the next question, use this compound.
Sure, the documented pIC50 for `Clc1ccc(Nc2nc3ccccc3c3[nH]c(C4CCC=CCC4)nc23)cc1Cl` is 5.16

---

Below, each entry is listed with its recorded pIC50.
# Target under test: Cytochrome P450 1A2 (Homo sapiens, UniProt P05177)
# Sequence (P05177 whole entry): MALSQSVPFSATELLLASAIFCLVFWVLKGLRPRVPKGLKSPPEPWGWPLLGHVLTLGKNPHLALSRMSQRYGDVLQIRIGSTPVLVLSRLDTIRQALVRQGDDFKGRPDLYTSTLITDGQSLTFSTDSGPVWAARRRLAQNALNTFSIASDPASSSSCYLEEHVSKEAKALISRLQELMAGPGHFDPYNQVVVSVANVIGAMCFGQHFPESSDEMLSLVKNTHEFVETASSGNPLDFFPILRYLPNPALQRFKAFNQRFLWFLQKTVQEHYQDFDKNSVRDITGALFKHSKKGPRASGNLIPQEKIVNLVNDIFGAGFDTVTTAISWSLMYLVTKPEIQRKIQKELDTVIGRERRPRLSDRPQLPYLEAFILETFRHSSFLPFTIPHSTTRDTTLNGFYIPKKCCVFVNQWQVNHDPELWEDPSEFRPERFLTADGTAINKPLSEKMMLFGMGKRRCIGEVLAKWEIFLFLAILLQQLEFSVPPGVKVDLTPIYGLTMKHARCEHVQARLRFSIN
As a rule, pIC50 stands for the negative log10 of the concentration, concentration in M.

In [3]: df
Out[3]:
                                   molecule  readout_number
0  Clc1ccc(COC(Cn2ccnc2)c2ccc(Cl)cc2Cl)c(Cl)c1 (configuration not stated)            5.34

Now for the molecule whose pIC50 we want.
Record `Clc1ccc(Nc2nc3ccccc3c3[nH]c(C4CCC=CCC4)nc23)cc1Cl` ; system Cytochrome P450 1A2 (Homo sapiens, UniProt P05177); pIC50 = 5.16
